PROTOCOL NOTES: absolute recovery over mixed-bed multilayer solid-phase extraction; higher = better recovery
CONDITION NOTES: surface water; enrichment method: SPE
ASSAY READOUT: absolute recovery (%)

{"MOLECULE": "CC1CC2C(C(O)CC3(C)C2CCC3(O)C(=O)CO)C2(C)C=CC(=O)C=C12 (stereo not drawn) [Methylprednisolon]", "ENDPOINT UNIT": "%", "absolute recovery": 92.3}

a: CCCCCC(C)OC(=O)COc1ccc(Cl)c2cccnc12 (stereo not drawn) [Cloquintocet-mexyl]
b: Cc1ccc(NS(=O)(=O)N(C)C)cc1 [N-N-dimethyl-N-(4-methylphenyl)-sulfamide]
For the pair a and b , which member has the lower absolute recovery number? Let me know the label of the one you choose.
a
(a: 67.2%, b: 98%)

* * *

PROTOCOL NOTES: absolute recovery over vacuum-assisted evaporative concentration; higher = better recovery
CONDITION NOTES: wastewater effluent; enrichment method: VEC
ASSAY READOUT: absolute recovery (%)

{"COMPOUND": "Cc1[nH]c(=O)n(C(C)(C)C)c(=O)c1Cl [Terbacil]", "absolute recovery (%)": 102}
{"COMPOUND": "CC(C)[NH+](CCC(C(N)=O)(c1ccccc1)c1ccccn1)C(C)C (configuration not stated) [Disopyramide]", "absolute recovery (%)": 98.1}
{"COMPOUND": "CC(C)N1C(=O)N(c2ccccc2)CSC1=NC(C)(C)C [Buprofezin]", "absolute recovery (%)": 75.3}
{"COMPOUND": "COC(=O)c1ccccc1S(=O)(=O)[N-]C(=O)Nc1nc(C)nc(OC)n1 [Metsulfuron-methyl]", "absolute recovery (%)": 102}
{"COMPOUND": "O=[N+]([O-])C(Br)(CO)CO [Bronopol]", "absolute recovery (%)": 52.8}

A: COc1cccc2c1C(=O)c1c(O)c3c(c(O)c1C2=O)CC(O)(C(O)CO)CC3OC1CC([NH3+])C(O)C(C)O1 (configuration not stated) [Doxorubicinol]
B: NC(=O)N1c2ccccc2C=Cc2ccccc21 [Carbamazepin]
For the pair A and B , which member has the lower absolute recovery number? Let me know the label of the one you choose.
A

* * *

PROTOCOL NOTES: absolute recovery over mixed-bed multilayer solid-phase extraction; higher = better recovery
CONDITION NOTES: nanopure water; enrichment method: SPE
ASSAY READOUT: absolute recovery (%)

Look over these answered cases.
{"COMPOUND": "CCNc1nc(Cl)nc(NC(C)(C)C)n1 [Terbutylazin]", "ASSAY READOUT": "absolute recovery", "RESULT": 94.9}
{"COMPOUND": "COc1cccc2c1C(=O)c1c(O)c3c(c(O)c1C2=O)CC(O)(C(O)CO)CC3OC1CC([NH3+])C(O)C(C)O1 (stereo not given) [Doxorubicinol]", "ASSAY READOUT": "absolute recovery", "RESULT": 70.4}
{"COMPOUND": "CCc1cccc(C)c1N(C(=O)C(=O)[O-])C(C)COC (stereo not given) [Metolachlor-OXA]", "ASSAY READOUT": "absolute recovery", "RESULT": 81.6}
{"COMPOUND": "Cc1cccc(C)c1N(Cn1cccn1)C(=O)CCl [Metazachlor]", "ASSAY READOUT": "absolute recovery", "RESULT": 96.5}
{"COMPOUND": "O=[N+]([O-])C(Br)(CO)CO [Bronopol]", "ASSAY READOUT": "absolute recovery", "RESULT": 13.9}
{"COMPOUND": "Cc1nc2n(c(=O)c1CC[NH+]1CCC(c3noc4cc(F)ccc34)CC1)CCCC2 [Risperidone]", "ASSAY READOUT": "absolute recovery", "RESULT": 90.1}
{"COMPOUND": "CCCCCCCCCC[N+](C)(C)[O-] [NN-Dimethyldicylamin-N-oxid]", "ASSAY READOUT": "absolute recovery", "RESULT": 85.4}
{"COMPOUND": "O=C(NC(=O)c1c(F)cccc1F)Nc1ccc(Cl)cc1 [Diflubenzuron]", "ASSAY READOUT": "absolute recovery", "RESULT": 101}

P: CCCCOc1ccc(CC(=O)NO)cc1 [Bufexamac]
Q: CCC1OC(=O)C(C)C(OC2CC(C)(OC)C(O)C(C)O2)C(C)C(OC2OC(C)CC([NH+](C)C)C2O)C(C)(O)CC(C)C(=O)C(C)C(O)C1(C)O (stereo not given) [Erythromycin]
Select the item with the higher value of absolute recovery from the options P and Q listed. Let me know the label of the one you choose.
P

* * *

PROTOCOL NOTES: absolute recovery over vacuum-assisted evaporative concentration; higher = better recovery
CONDITION NOTES: wastewater influent; enrichment method: VEC
ASSAY READOUT: absolute recovery (%)

Look over these answered cases.
{"COMPOUND": "CNC(=O)CSP(=S)(OC)OC", "absolute recovery / %": 103}
{"COMPOUND": "CNC(=O)Nc1ccc(Cl)c(Cl)c1", "absolute recovery / %": 106}
{"COMPOUND": "Cc1nnc(-c2ccccc2)c(=O)[n-]1", "absolute recovery / %": 107}
{"COMPOUND": "c1ccc(CN2CC[NH2+]CC2)cc1", "absolute recovery / %": 140}
{"COMPOUND": "Cc1ccc(-c2c(Cl)nc(C#N)n2S(=O)(=O)N(C)C)cc1", "absolute recovery / %": 104}

I: CC(C)c1nc(N(C)S(C)(=O)=O)nc(-c2ccc(F)cc2)c1C=CC(O)CC(O)CC(=O)[O-] (stereo not given)
II: CC1(C(=O)[O-])CCC2(C)CCC3(C)C(=CC(=O)C4C5(C)CCC(O)C(C)(C)C5CCC43C)C2C1 (stereo not given)
III: COc1ccc(CCC(=O)c2c(O)cc(OC3OC(CO)C(O)C(O)C3OC3OC(C)C(O)C(O)C3O)cc2O)cc1O (stereo not given) [Neohesperidin-dihydrochalcon]
Please list the entries, largest absolute recovery first. # output: labels, in the requested order
I, III, II
(I: 91.4%, III: 49.7%, II: 27.7%)

* * *

PROTOCOL NOTES: absolute recovery over mixed-bed multilayer solid-phase extraction; higher = better recovery
CONDITION NOTES: nanopure water; enrichment method: SPE
ASSAY READOUT: absolute recovery (%)

Look over these answered cases.
{"COMPOUND": "OC(Cn1cncn1)(Cn1cncn1)c1ccc(F)cc1F", "ENDPOINT UNIT": "%", "RESULT": 100}
{"COMPOUND": "Clc1ccccc1C(c1ccccc1)(c1ccccc1)n1ccnc1", "ENDPOINT UNIT": "%", "RESULT": 93.4}

I: CC(=O)SC1CC2=CC(=O)CCC2(C)C2CCC3(C)C(CCC34CCC(=O)O4)C12 (stereo unspecified)
II: Cc1c(N)c(=O)n(-c2ccccc2)n1C [4-Aminopyrin (=4-Aminoantipyrin, 4-AA)]
For the pair I and II , which member has the lower absolute recovery number? Let me know the label of the one you choose.
II
(II: 37.8%, I: 80.9%)

1: CCN(CC)C(=O)Nc1ccc(OCC(O)C[NH2+]C(C)(C)C)c(C(C)=O)c1 (stereo unspecified)
2: Oc1ccc(C=Cc2cc(O)cc(O)c2)cc1
For the pair 1 and 2 , which member has the lower absolute recovery number? Let me know the label of the one you choose.
2

* * *

PROTOCOL NOTES: absolute recovery over mixed-bed multilayer solid-phase extraction; higher = better recovery
CONDITION NOTES: wastewater influent; enrichment method: SPE
ASSAY READOUT: absolute recovery (%)

Look over these answered cases.
{"MOLECULE": "CC1COC(Cn2cncn2)(c2ccc(Oc3ccc(Cl)cc3)cc2Cl)O1 (centres undefined)", "ENDPOINT UNIT": "%", "absolute recovery": 70.9}
{"MOLECULE": "CC(=O)Nc1c(I)c(NC(C)=O)c(I)c(C(=O)[O-])c1I [Diatrizoate (=Amidotrizoic-acid)]", "ENDPOINT UNIT": "%", "absolute recovery": 65.1}

A: COc1ccc(CCC(=O)c2c(O)cc(OC3OC(CO)C(O)C(O)C3OC3OC(C)C(O)C(O)C3O)cc2O)cc1O (centres undefined) [Neohesperidin-dihydrochalcon]
B: NC(=O)c1ncn(C2OC(CO)C(O)C2O)n1 (centres undefined)
For the pair A and B , which member has the lower absolute recovery number? Let me know the label of the one you choose.
B
(B: 37%, A: 85%)

* * *

PROTOCOL NOTES: absolute recovery over mixed-bed multilayer solid-phase extraction; higher = better recovery
CONDITION NOTES: wastewater influent; enrichment method: SPE
ASSAY READOUT: absolute recovery (%)

{"MOLECULE": "CCCOc1nc2ccc(I)cc2c(=O)n1CCC [Proquinazid]", "absolute recovery / %": 65}

I: CC(C)[NH2+]CC(O)COc1cccc2ccccc12 (stereo not drawn) [Propranolol]
II: Nc1[nH]c(=O)ncc1F [5-Fluoro-Cytosine]
For the pair I and II , which member has the lower absolute recovery number? Let me know the label of the one you choose.
II
(II: 4.3%, I: 86.3%)
